target: BCL6 BTB domain (Homo sapiens (Human), UniProt P41182)
Readout label: pKd
Remember, pKd is on a log scale: it is -log10 of the molar concentration.

Example entries and their recorded answers appear below.
CO[C@H]1CN(c2cc(NC(=O)Cn3cc(-c4cc(Cl)c(O)c(C(N)=O)c4)c4c(=O)n(C)c(C(F)(F)F)nc43)c(Cl)cn2)C[C@H]1F [Compound I-387]	6.72
Cn1cnc2c(c(-c3cc(Cl)c(O)c(C(N)=O)c3)cn2CC(=O)Nc2cc(N3CCN4C(=O)CCC4C3)ncc2Cl)c1=O (stereo not drawn) [Compound I-236]	7.78
COc1cc(-c2cn(CC(=O)Nc3cc(N4CCOC[C@@H]4C)ncc3Cl)c3nc(C)n(C)c(=O)c23)cc(C(N)=O)c1O [Compound I-122]	8.22
C[C@H]1CN(CCC(F)(F)F)CCN1c1cc(NC(=O)Cn2cc(-c3cc(C(N)=O)c(O)c(F)c3F)c3c(=O)n(C)cnc32)c(Cl)c(F)n1 [Compound I-464]	7.08
CN1CC2CC(C1)N2c1cc(NC(=O)Cn2cc(-c3cc(C(N)=O)c(O)c(F)c3F)c3c(=O)n(C)cnc32)c(Cl)cn1 [Compound I-451]	6.80

Enquiry: Provide one value: measured pKd of COCCN1CCN(c2cc(NC(=O)Cn3cc(-c4cc(Cl)c(O)c(C(N)=O)c4)c4c(=O)n(C)cnc43)c(Cl)c(F)n2)[C@@H](C)C1 [Compound I-447]
Return: 8.04

Enquiry: Dear colleague, please send me the reported pKd for CC[C@@H]1CN(c2cc(NC(=O)Cn3cc(-c4cc(Cl)c(O)c(C(N)=O)c4)c4c(=O)n(C)cnc43)c(Cl)cn2)CCO1 [Compound I-202] when you can.
Return: 7.62

Enquiry: Give me measured pKd, please, for this molecule: Cn1cnc2c(c(-c3cc(C(N)=O)c(O)c(F)c3F)cn2CC(=O)Nc2cc(N3CCOCC3)c(F)cc2Cl)c1=O [Compound I-227]
Return: 6.38

Enquiry: Tell me its pKd given CN1CCN(c2cc(NC(=O)Cn3cc(-c4cc(Cl)c(O)c(C(N)=O)c4)c4c(=O)n(C)cnc43)c(Cl)cn2)C(C)(C)C1 [Compound I-352] as the entry.
Return: 7.22
